molecular target: T1, human CD47 on cells (human, UniProt Q08722 19-323); assay: flow cytometry on CHO-K1/huCD47 cells; x axis Log(nM), unit taken from the axis
T1 construct: also called CHO-K1/huCD47; human CD47 over-expressed in CHO-K1 cells
Reported EC50 by item:
Use nM as the unit, but write only the number.

The cases that follow already have their EC50 on record.
112E5F2 (antibody, V domains shown, purified murine anti-CD47 hybridoma antibody; same VH and VL as 112E5D9 and 112E5H7; also called 11-112E5F2) VH: QVQLQQSGPQLVRPGASVKISCKASGYSFTNNWMHWMKQRPGQGLEWIGMIDPSDSETRLNQQFRDKATLTVDKTSSTAYMQLSSPTSEDSAVYYCARLGRYYFDYWGLGTTLTVSS VL: NIVMTQSPKSMSVSVGERVTMNCRASEIVGTYVSWYQQKPEQSPKLLIYGAFNRYTGVPDRFTGSRSGTDFSLNISNVQAEDLADYLCGQSYDSPYTFGGGTKLEIK : 3.15
112E5D9 (antibody, V domains shown, purified murine anti-CD47 hybridoma antibody; same VH and VL as 112E5F2 and 112E5H7; also called 10-112E5D9) VH: QVQLQQSGPQLVRPGASVKISCKASGYSFTNNWMHWMKQRPGQGLEWIGMIDPSDSETRLNQQFRDKATLTVDKTSSTAYMQLSSPTSEDSAVYYCARLGRYYFDYWGLGTTLTVSS VL: NIVMTQSPKSMSVSVGERVTMNCRASEIVGTYVSWYQQKPEQSPKLLIYGAFNRYTGVPDRFTGSRSGTDFSLNISNVQAEDLADYLCGQSYDSPYTFGGGTKLEIK : 3.47

Turning to the following binder.
response.value for 55F2C4 (antibody, V domains shown, also called 01-55F2C4) VH: QVQLQQSGPQLVRPGASVKISCKASGYSFTNYWMHWMKQRPGQGLEWIGMIDPSDSETRLNQQFKDKATLAVDKSSSTAYMQLSSPTSEDSAVYYCARLGRYYFDYWGQGTTLTVSS VL: NIVMTQSPKSMYVSVGERVTLICRASEIVGTYVSWYQQKPEQSPKLLIYGASNRYTGVPDRFTGSRSATDFSLTISNVQAEDLADYLCGQSYDSPYTFGGGTKLEIK (field: EC50) = 52.5
